# credit: the RNAGym collection of RNA variant scans (doi:10.1073/pnas.2313332121)

Documented polymerase ribozyme fitness (log ratio) across a set of variants
B1: TPR t1 (parent)
chain: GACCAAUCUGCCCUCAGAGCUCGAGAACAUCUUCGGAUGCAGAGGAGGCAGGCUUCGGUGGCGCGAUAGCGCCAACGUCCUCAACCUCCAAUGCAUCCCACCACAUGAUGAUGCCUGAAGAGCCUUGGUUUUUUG

Variants of: B1
Experiment: polymerase ribozyme fitness, log enrichment relative to wild type (log ratio); higher = more active; in vitro selection for triplet polymerase activity
Keep it simple and answer with nothing but the number.

variant.key	polymerase ribozyme fitness (log ratio)
A18C C64U U130C	-2.08
C4G U87A	-2.92
C13G C79U	-2.23
G113U A119G	-1.66

Task item: Requested field: polymerase ribozyme fitness (log ratio). Item: C12U C79G C101U G120A
Reply: 0.377

Task item: What does the data say about its polymerase ribozyme fitness (log ratio)? Entry: C70A U132A
Reply: -0.853

Task item: Query: polymerase ribozyme fitness (log ratio); subject: G39C C72U U129G
Reply: -2.2

Task item: I would be grateful if you could share the reported polymerase ribozyme fitness (log ratio) for C53G C73U G113C A121C .
Reply: -2.12
